- assay notes: qHTS Multiplex Assay to Identify Dual Action Probes in a Cell Model of Huntington: Cytoprotection (ATP)
- protocol conditions: PC12 HTT-Q103 induced, ATP luminescence, 40 h; series mostly up to 56.4 µM
Out of some 230,000 compounds screened, about 310 (0.13%) were called active. Inconclusive results (about 2%) are left out. This is one part of a sample in which actives are shown more often than they occur.
measured property: cytoprotection (ATP increase)

Here's what some known entries look like.
COc1ccc(C2(C#N)CCC(C(=O)O)CC2)cc1OC1CCCC1 (stereo not given); inactive
CC(C)[C@@H]1NC(=O)[C@H](Cc2ccccc2)NC(=O)[C@@H](CC(=O)O)NC(=O)CNC(=O)[C@H](CCCNC(=N)N)NC1=O; inactive
N#C/C(=C\C1=C(N2CCOCC2)C(=C\c2ccccc2)/CC1)C(=O)Nc1ccccc1F; 6.74% [at 10 µM] (inactive)
COC(=O)C(C(=O)OC)C1c2ccccc2C=C(C2CC2)N1C(=O)OC (stereo not given); inactive

We now examine a further molecule.
Returns the measured cytoprotection (ATP increase) for the input molecule. Input: C[C@]12CC[C@@H]3c4ccc(O)cc4C[C@@H](CCCCCCCCCS(=O)CCCC(F)(F)C(F)(F)F)C3[C@@H]1CC[C@@H]2O (stereo not given in full)
inactive

====

- assay notes: qHTS Multiplex Assay to Identify Dual Action Probes in a Cell Model of Huntington: Cytoprotection (ATP)
- protocol conditions: PC12 HTT-Q103 induced, ATP luminescence, 40 h; series mostly up to 56.4 µM
Screen size: about 230,000 compounds; about 310 (0.13%) were called active. Another 2% or so got no clear call; they are omitted. The entries come from a sample that favours actives as a whole.
measured property: cytoprotection (ATP increase)

Example molecules with recorded cytoprotection (ATP increase):
COC(C)C(C(=O)OCC1=CCN2CC[C@H](O)[C@@H]12)C(C)C (stereo not given in full); inactive
COc1ccccc1N1CCN(C(=O)CN(Cc2ccc(Cl)cc2)S(C)(=O)=O)CC1; inactive
COCCCNC(=O)C1CC(=O)N(CCc2ccccc2)C1 (stereo not given); inactive
NNc1nnc(NN)c2ccccc12; inactive
COc1cc(OC)c2c(c1)OC(=O)CC2c1cc(OC)c(OC)c(OC)c1 (stereo not given); inactive

Provide reported cytoprotection (ATP increase) for each item, in the same order as listed.
1. CCOC(=O)c1c(NC(=O)CSc2nnc(CNc3ccc(C)cc3C)o2)sc(C)c1C
2. CC1=C(C/C=C(\C)CCCC(C)CCCC(C)CCCC(C)C)C(=O)c2ccccc2C1=O (stereo not given)
3. COCCCNC(=O)Cn1cc(/C=C(\C#N)C(=O)N2CCN(c3ccccc3)CC2)c2ccccc21
4. COc1ccc(CC(N)C(=O)NC2C(O)[C@H](n3cnc4c(N(C)C)ncnc43)O[C@@H]2CO)cc1 (stereo not given in full)
5. COC(=O)C/C=C/[C@@H](C)[C@H](NC(=O)OCC(Cl)(Cl)Cl)c1ccccc1

1: 33% [at 10 µM] (inactive); 2: inactive; 3: 1.65% [at 10 µM] (inactive); 4: inactive; 5: inactive

====

- assay notes: qHTS Multiplex Assay to Identify Dual Action Probes in a Cell Model of Huntington: Cytoprotection (ATP);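 also: toxic huntingtin expression switched on by the ecdysone agonist tebufenozide; % of control where 0% means no effect; nearly all actives have a fitted effect of over 45% in size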
- protocol conditions: PC12 HTT-Q103 induced, ATP luminescence, 40 h; series mostly up to 56.4 µM
In all, about 230,000 compounds went through this assay and about 310 (0.13%) were called active. Inconclusive results (about 2%) are left out. The list comes from a sample in which actives are over-represented; it also holds close analogues and randomly drawn compounds.
measured property: cytoprotection (ATP increase)

CC(=O)OC1C([N+]2(C)CCCCC2)C[C@H]2C3CC[C@H]4C[C@H](OC(C)=O)C([N+]5(C)CCCCC5)CC4(C)C3CCC12C (stereo not given in full); inactive
CC1=C2[C@@H](O)[C@H]([C@@H](C)C(=O)NCCC(C)C)CC[C@@]2(C)C=CC1=O; inactive
C=CCN1c2ccccc2[C@]23C[C@@H](C(=O)OC)N(S(=O)(=O)c4ccc([N+](=O)[O-])cc4)C2=NC(C(=O)OC)=C(C(=O)OC)[C@H]13; -23.4% [at 10 µM] (inactive)
N#Cc1ccc(-c2ccc(F)cc2)nc1Sc1ccccc1; inactive
O=C1CCC[C@@H]2CC(N3CCCCC3)C[C@@H]3CCN1[C@H]23 (stereo not given in full); inactive

Dear colleague, could you send me cytoprotection (ATP increase) for each of the items below? Thanks.
1. CC(C)C1=CC2=CC[C@H]3[C@](C)(C(=O)O)CCC[C@]3(C)C2CC1 (stereo not given in full)
2. Cc1c(N=Nc2ccc(N(C)C)cc2)c(=O)n(-c2ccccc2)n1C
3. C/C=C/C=N/NC(=O)c1ccncc1
4. CCN1C(=O)N[C@@H](c2ccccc2)C(C(=O)OC)=C1C
5. CCC(C)[C@@H](N)C(=O)O (stereo not given in full)
6. COc1cc(OC)cc(-c2nc3ccccc3c(=O)n2NC(=O)c2cccnc2Cl)c1
7. C=CC1(C)CC(=O)C2(O)C(C)(O1)C(OC(C)=O)C(O)C1C(C)(C)CCC(O)C12C (stereo not given)

1. inactive
2. -1.47% [at 10 µM] (inactive)
3. inactive
4. -11.9% [at 10 µM] (inactive)
5. inactive
6. -11.8% [at 10 µM] (inactive)
7. inactive

====

- assay notes: qHTS Multiplex Assay to Identify Dual Action Probes in a Cell Model of Huntington: Cytoprotection (ATP);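 also: toxic huntingtin expression switched on by the ecdysone agonist tebufenozide; % of control where 0% means no effect; nearly all actives have a fitted effect of over 45% in size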
- protocol conditions: PC12 HTT-Q103 induced, ATP luminescence, 40 h; series mostly up to 56.4 µM
About 310 (0.13%) of roughly 230,000 compounds were called active. Not shown: some 2% with an inconclusive outcome. What follows is part of a selection rich in actives, with near analogues and random picks from the rest.
measured property: cytoprotection (ATP increase)

# annotated cases, reported cytoprotection (ATP increase) shown
C/C=C(\C)C(=O)O[C@H]1CC(C)=C2C(=O)C=C(C)C2[C@@H]2OC(=O)[C@@](C)(OC(=O)C=C(C)C)C21 (stereo not given in full); inactive
Clc1ccc(C(Cn2ccnc2)OCc2ccsc2Cl)c(Cl)c1 (stereo not given); inactive
C=CC1=C2C=C(C3CC3)N(CC(C)C)C=C2C(=O)C(C)(OC(=O)c2ccco2)C1=O (stereo not given); -19.6% [at 10 µM] (inactive)
CC(C)(Oc1ccc(C2CC2(Cl)Cl)cc1)C(=O)O (stereo not given); inactive

Now for a further compound.
# get_value(readout='cytoprotection (ATP increase)', item= CC(=O)Oc1ccccc1C1=NN(C(C)=O)C(c2ccccc2)C1 (stereo not given) )
inactive

====

- assay notes: qHTS Multiplex Assay to Identify Dual Action Probes in a Cell Model of Huntington: Cytoprotection (ATP);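 also: toxic huntingtin expression switched on by the ecdysone agonist tebufenozide; % of control where 0% means no effect; nearly all actives have a fitted effect of over 45% in size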
- protocol conditions: PC12 HTT-Q103 induced, ATP luminescence, 40 h; series mostly up to 56.4 µM
In all, about 230,000 compounds went through this assay and about 310 (0.13%) were called active. Inconclusive results (about 2%) are left out. What follows is part of a selection rich in actives, with near analogues and random picks from the rest.
measured property: cytoprotection (ATP increase)

COC(=O)N1C(/C=C/C=C/c2ccc(OC)cc2)=Cc2ccccc2C1CC(C)=O (stereo unspecified); -21.1% [at 10 µM] (inactive)
CC(C)(C)OC(=O)NCCCC1=CC2=CC(=O)C(C)(OC(=O)c3ccco3)C(=O)C2=CO1 (stereo unspecified); inactive
CC(=O)CC(c1ccccc1)C1C(=O)Oc2ccccc2C1=O (stereo unspecified); inactive
O=C(Nc1ccc(O)cc1)c1ccccc1O; inactive
NCCC(=O)c1ccccc1N; inactive

--- query ---
# query: cytoprotection (ATP increase) of entry COc1cccc([C@@H]2Oc3ccc(Br)cc3C(=O)[C@H]2OC(=O)NCCc2ccc(OC)c(OC)c2)c1
inactive

====

- assay notes: qHTS Multiplex Assay to Identify Dual Action Probes in a Cell Model of Huntington: Cytoprotection (ATP);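 also: toxic huntingtin expression switched on by the ecdysone agonist tebufenozide; % of control where 0% means no effect; nearly all actives have a fitted effect of over 45% in size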
- protocol conditions: PC12 HTT-Q103 induced, ATP luminescence, 40 h; series mostly up to 56.4 µM
- Description: NIH Chemical Genomics Center [NCGC] NIH Molecular Libraries Probe Production centers Network [MLPCN] Assay Submitter (PI): Wei Zheng […] A stable PC12 cell line containing a gene fusion of Exon 1 of the Huntingtin gene linked to GFP under the control of the inducible ecdysone promoter were used as the cell-based model of Huntington Disease for high throughput screening. […] The cell death were quantified with a measurement of ATP content in the cells. […]
About 310 (0.13%) of roughly 230,000 compounds were called active. About 2% were inconclusive and are not listed. This excerpt belongs to a sample that is enriched for actives.
measured property: cytoprotection (ATP increase)

COC(=O)C1=C(C(=O)OC)[C@@H]2N(Cc3ccccc3)c3ccccc3[C@@]23C[C@@H](C(=O)OC)N(S(=O)(=O)c2ccc(C(F)(F)F)cc2)C3=N1; 23.4% [at 10 µM] (inactive)
C#CCCOC(=O)N1C2=NC(C(=O)OC)=C(C(=O)OC)[C@@H]3N(C)c4ccc(OC)cc4[C@]23C[C@H]1C(=O)OC; -19.2% [at 10 µM] (inactive)
CSc1ncccc1C(=O)N1CCCC(CCC(=O)NCc2ccccc2F)C1 (centres undefined); 4.93% [at 10 µM] (inactive)
CNC(=O)C1(C)C=CC2(CCCCC2)N1C(C)=O (centres undefined); inactive
COc1ccc(-c2nc(-c3ccccc3)oc2Nc2ccc3ccccc3c2)cc1; inactive
O=C(/C=C/c1cccc(F)c1)NC1CC1; inactive
Cc1ccc(-c2ncc(Cl)cc2-c2ccc(S(C)(=O)=O)cc2)cn1; inactive
O=P(O)(O)C(O)c1ccc2ccccc2c1 (centres undefined); inactive

Okay, here is my list. What is cytoprotection (ATP increase) for each of these?
1. COc1ccc(C2CC(=O)Oc3ccc(C(C)(C)C)cc32)cc1 (centres undefined)
2. COc1ccc(/C=C2\NC(=O)[C@@H]3Cc4ccccc4CN3C2=O)cc1
3. CCCCC/C=C\C/C=C\C/C=C\CCCCC(=O)NCC(=O)O
4. COC(=O)c1cc(NC(=O)CN2CCN(C(C)=O)CC2)cc(C(=O)OC)c1
5. CC(N)(C(=O)O)c1ccc(-c2nn[nH]n2)cc1 (centres undefined)
6. CC1(OC(=O)c2ccc(Cl)nc2)C(=O)Cc2cc(-c3ccsc3)ncc2C1=O (centres undefined)
7. COC(=O)C1=C(C(=O)OC)[C@@H]2N(C)c3ccccc3[C@@]23C[C@@H](C(=O)OC)N(S(=O)(=O)c2ccc(Br)cc2)C3=N1

1. inactive
2. inactive
3. inactive
4. inactive
5. inactive
6. -9.48% [at 10 µM] (inactive)
7. 7.44% [at 10 µM] (inactive)

Fill in cytoprotection (ATP increase) for each of the 4 compounds listed.
1. Cc1ccc(-c2cccc([C@H]3[C@@H]4C=CC[C@@H](C)[C@@H]4C(=O)N3Cc3ccccc3)c2)cc1
2. COC(=O)[C@@H]1CC2=CC(=O)CC[C@]2(C)[C@@]23O[C@@H]2C[C@@]2(C)[C@@H](CC[C@@]24CCC(=O)O4)[C@H]13
3. CN(C)Cc1ccccc1C1(O)c2ccccc2CSc2ccccc21 (centres undefined)
4. CC[C@@]12C=C(/C=C/c3ccccc3)[C@](CC)(C1)[C@H](c1ccccc1)CC2=O

["inactive", "inactive", "inactive", "inactive"]
